B1: EHEE_rd2_0601 (parent)
chain: TYTYKLTDEEASRRAEDEWRNRGYDVRVRNNNGTWEVEVR

- Variants of: B1
- measurement_description: folding stability dG (cDNA display proteolysis); higher = more stable
- condition_parameters: PBS, room temperature
In this section we review reported folding stability dG values for a set of variants.
Dear colleague, please send the value followed by its unit.

Past entries and their recorded results:
chain_sequence="TYTYKLTDEEASRRAEDEWRNRGYDVRVRNNNHTWEVEVR [G33H]" quantity="folding stability dG" measurement="-0.011 kcal/mol"
chain_sequence="TYTYKLTDEEAFRRAEDEWRNRGYDVRVRNNNGTWEVEVR [S12F]" quantity="folding stability dG" measurement="1.08 kcal/mol"
chain_sequence="TYTYKLTDEEASRRAEDEWRNRGYDVRVRNNNGTWEVEVI [R40I]" quantity="folding stability dG" measurement="1.51 kcal/mol"

TYTYKLTDEEASRRAEDEWRNRQYDVRVRNNNGTWEVEVR [G23Q] has a reported folding stability dG of -0.624 kcal/mol

TYTYKLTDEEASRRAEDEWRNRGYDVRVTNNNGTWEVEVR [R29T] has a reported folding stability dG of 1.86 kcal/mol

TYTFKLTDEEASRRAEDEWRNRGYDVRVRNNNGTWEVEVR [Y4F] has a reported folding stability dG of 1.94 kcal/mol

TYTYKLTDEEASRYAEDEWRNRGYDVRVRNNNGTWEVEVR [R14Y] has a reported folding stability dG of 0.942 kcal/mol

TKTYKLTDEEASRRAEDEWRNRGYDVRVRNNNGTWEVEVR [Y2K] has a reported folding stability dG of 1.33 kcal/mol

TYTYKLTDEEASRRAEDEWRMRGYDVRVRNNNGTWEVEVR [N21M] has a reported folding stability dG of 1.58 kcal/mol

TYTYKLTDEEASRRAEDEWRNRGYDVRNRNNNGTWEVEVR [V28N] has a reported folding stability dG of -0.678 kcal/mol

TSTYKLTDEEASRRAEDEWRNRGYDVRVRNNNGTWEVEVR [Y2S] has a reported folding stability dG of 0.609 kcal/mol

TYTYKLTDEEASRRAEDCWRNRGYDVRVRNNNGTWEVEVR [E18C] has a reported folding stability dG of 2.41 kcal/mol

Each recorded value in this set is attributed to the MegaScale stability set (Tsuboyama et al. 2023).
